// provenance: paper PMC6952366

TEST TARGET: Shaker K+ channel (Drosophila melanogaster, UniProt P08510, DEL6-46)
Construct: expressed in transfected cells; host or cells: Xenopus laevis oocytes injected with in vitro transcribed cRNA (cDNA clone from the Bezanilla laboratory)
Sequence (P08510 other isoform, or with tags, fused parts or gaps DEL6-46): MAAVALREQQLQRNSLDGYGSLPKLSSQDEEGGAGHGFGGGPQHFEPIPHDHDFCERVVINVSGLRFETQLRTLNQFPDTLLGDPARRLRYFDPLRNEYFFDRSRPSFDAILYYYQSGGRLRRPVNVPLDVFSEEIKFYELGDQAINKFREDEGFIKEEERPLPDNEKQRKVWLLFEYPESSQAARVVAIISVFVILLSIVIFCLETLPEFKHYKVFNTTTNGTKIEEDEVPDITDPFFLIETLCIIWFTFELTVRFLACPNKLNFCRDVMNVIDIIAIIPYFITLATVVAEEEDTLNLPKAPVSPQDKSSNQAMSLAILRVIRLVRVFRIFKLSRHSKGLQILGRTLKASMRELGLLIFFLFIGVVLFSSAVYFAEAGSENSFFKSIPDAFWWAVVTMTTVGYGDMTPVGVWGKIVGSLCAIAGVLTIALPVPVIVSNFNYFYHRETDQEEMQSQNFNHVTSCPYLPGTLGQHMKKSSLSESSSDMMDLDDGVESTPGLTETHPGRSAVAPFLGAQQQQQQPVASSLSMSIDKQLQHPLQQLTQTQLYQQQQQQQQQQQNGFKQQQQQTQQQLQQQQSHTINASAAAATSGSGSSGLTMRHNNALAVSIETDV
ASSAY DETAILS: cell-based
Format: cell-based, D. melanogaster
RUN PARAMETERS: IC50, 0 mV, pH 7.4, Hill fit
TEST READOUT: pIC50
One number for each entry, as −log10 of the molar value.

Cc1cnccc1N	4.41

Ask: Quick check: pIC50 of Nc1ccncc1C(F)(F)F [3CF34AP, 3-trifluoromethyl-4-aminopyridine] ?
Reply: 3.16
